Listed here are molecules together with their documented Emax.
ASSAY_TARGET: SIRT1 (Homo sapiens)
Sequence (Q96EB6 1-747): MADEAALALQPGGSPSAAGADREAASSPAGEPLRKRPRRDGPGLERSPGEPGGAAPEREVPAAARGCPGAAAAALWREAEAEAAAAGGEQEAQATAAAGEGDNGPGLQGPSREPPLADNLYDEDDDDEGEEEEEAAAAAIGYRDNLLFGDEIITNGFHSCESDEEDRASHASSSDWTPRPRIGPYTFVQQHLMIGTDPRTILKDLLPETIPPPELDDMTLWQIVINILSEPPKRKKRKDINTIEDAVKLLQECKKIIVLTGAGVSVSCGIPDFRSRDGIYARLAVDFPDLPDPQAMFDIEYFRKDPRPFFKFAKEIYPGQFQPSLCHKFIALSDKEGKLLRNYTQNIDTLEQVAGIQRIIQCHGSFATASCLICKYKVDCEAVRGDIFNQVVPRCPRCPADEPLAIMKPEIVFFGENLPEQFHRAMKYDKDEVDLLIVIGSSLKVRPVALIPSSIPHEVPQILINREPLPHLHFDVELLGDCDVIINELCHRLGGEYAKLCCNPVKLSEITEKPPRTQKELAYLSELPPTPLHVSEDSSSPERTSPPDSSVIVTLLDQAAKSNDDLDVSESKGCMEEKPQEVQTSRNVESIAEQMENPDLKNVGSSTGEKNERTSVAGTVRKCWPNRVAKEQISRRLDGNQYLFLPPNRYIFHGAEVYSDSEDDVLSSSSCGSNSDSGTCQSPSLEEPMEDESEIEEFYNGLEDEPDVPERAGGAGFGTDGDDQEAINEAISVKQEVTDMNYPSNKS
TEST_PROTOCOL: TAMRA based mass spectrometry assay of SIRT1 activity
Type: biochemical
CONDITION_CONTEXT: TAMRA peptide substrate; percent maximum fold activation; read-out: TAMRA % Fold Act

// worked examples, Emax included
Cc1nc2ccc(-c3ccccc3C(F)(F)F)nn2c1C(=O)Nc1ccncc1F [Compound 464] :: ≥ 350%
Cc1nc(C(=O)Nc2cnc3c(C)cc(-c4ccccc4C(F)(F)F)nn23)c(C)s1 [Compound 413] :: ≥ 350%
O=C(Nc1cnn2ccc(-c3ccccc3OC(F)(F)F)nc12)c1cnccn1 [Compound 584] :: ≥ 350%

Read the next record carefully.
Emax reading for O=C(Nc1ncn2ccc(-c3ccccc3C(F)(F)F)nc12)c1cccc(N2CCOCC2)n1 [Compound 456] : ≥ 350%

----------
ASSAY_TARGET: SIRT1 (Homo sapiens, UniProt Q96EB6)
TEST_PROTOCOL: Trp mass spectrometry assay of SIRT1 activity
Assay type: biochemical
CONDITION_CONTEXT: Trp assay; concentration giving 150% activation of SIRT1
MEASURED_ATTRIBUTE: Trp EC1.5 (μM)

Known Trp EC1.5 (μM) results, listed for orientation:
Cc1cc(NC(=O)c2c(C)nc3c(OC[C@H](O)CO)cc(-c4ccccc4C(F)(F)F)nn23)cc(C)n1 :: A (EC1.5<1 μM)
Cc1ccc(NC(=O)c2cnn3ccc(-c4ccccc4C(F)(F)F)nc23)nc1 :: B (EC1.5 1-25 μM)
O=C(Nc1ccccn1)c1cnc2ccc(N3CCC(F)(F)CC3)nn12 :: B (EC1.5 1-25 μM)
O=C(Nc1cc(OC[C@@H](O)CO)cnn1)c1cnc2ccc(N3CC[C@H](F)C3)nn12 :: B (EC1.5 1-25 μM)

Note to self: Trp EC1.5 (μM) of Cc1nc2ccc(N3CC[C@H](F)C3)nn2c1C(=O)Nc1cccnc1 with SIRT1 (Homo sapiens, UniProt Q96EB6) was A (EC1.5<1 μM)

Noted Trp EC1.5 (μM) for Cc1ccnnc1NC(=O)c1cnc2c(C)cc(-c3ccccc3C(F)(F)F)nn12 , tested on SIRT1 (Homo sapiens, UniProt Q96EB6): B (EC1.5 1-25 μM)

O=C(Nc1nccc(OCC(F)(F)F)n1)c1cnc2ccc(-c3ccccc3C(F)(F)F)nn12 tested on SIRT1 (Homo sapiens, UniProt Q96EB6) gave Trp EC1.5 (μM): A (EC1.5<1 μM)

Assay SIRT1 (Homo sapiens, UniProt Q96EB6), sample O=C(Nc1cnc(OCC(O)CO)cn1)c1cnc2ccc(-c3ccccc3C(F)(F)F)nn12 (stereo not drawn) , Trp EC1.5 (μM) read: B (EC1.5 1-25 μM)

Measured Trp EC1.5 (μM) (SIRT1 (Homo sapiens, UniProt Q96EB6)), entry O=C(Nc1cnccn1)c1cnc2ccc(N3CCC(F)(F)C3)nn12 : B (EC1.5 1-25 μM)

Lab note: compound Cc1nc2ccc(N3CC[C@H](N(C)C)C3)nn2c1C(=O)Nc1cccnn1 tested on SIRT1 (Homo sapiens, UniProt Q96EB6); recorded Trp EC1.5 (μM) was B (EC1.5 1-25 μM)

The compound Cc1nccc(C(=O)Nc2cnc3ccc(-c4ccccc4C(F)(F)F)nn23)n1 on SIRT1 (Homo sapiens, UniProt Q96EB6): Trp EC1.5 (μM) was B (EC1.5 1-25 μM)

Observed Trp EC1.5 (μM) on SIRT1 (Homo sapiens, UniProt Q96EB6), entry Cc1nn2ccc(-c3ccccc3C(F)(F)F)nc2c1C(=O)Nc1ccnc(O)c1 , equals A (EC1.5<1 μM)

// provenance: patent US9957271B2
